Items are presented alongside their recorded synergy score.
System: human multiple myeloma cells (MM.1S)
Experiment: Anti-proliferation assay (ATPLite, 72 h)
Format: cell-based
Details: in combination with adenosine receptor agonist CGS-21680, MM.1S
Counter-ions that a name gives are not always drawn.
MEASUREMENT LABEL: synergy score

* Cc1ccc([N+](=O)[O-])cc1S(=O)(=O)N(C)C | 1.78
* COc1ccc(Cc2nn3c([C@@H](CCCc4ccccc4)[C@@H](C)O)nc(C)c3c(=O)[nH]2)cc1OC | 3.85
* O=C(Nc1c(Cl)cncc1Cl)c1ccc(OC(F)F)c(OCC2CC2)c1 | 3.82
* COc1cc2c(cc1OC)-c1cc(=Nc3c(C)cc(C)cc3C)n(C)c(=O)n1CC2 [Trequinsin hydrochloride] | 6.26
* O=C1CCc2cc(OCCCCc3nnnn3C3CCCCC3)ccc2N1 | 4.09
* COc1cc(-c2ccc(=O)[nH]n2)ccc1OC(F)F | 3.64
* COc1ccc([C@@H]2CNC(=O)C2)cc1OC1CCCC1 [R-(−)-Rolipram] | 1.92
* CC(C)C(=O)c1c(C(C)C)nn2ccccc12 | 2.22
